A collection of molecules and their measured PSMA Blkg % (10 μM)
target entity: human PSMA (Homo sapiens (Human))
Sequence (Q04609 whole entry): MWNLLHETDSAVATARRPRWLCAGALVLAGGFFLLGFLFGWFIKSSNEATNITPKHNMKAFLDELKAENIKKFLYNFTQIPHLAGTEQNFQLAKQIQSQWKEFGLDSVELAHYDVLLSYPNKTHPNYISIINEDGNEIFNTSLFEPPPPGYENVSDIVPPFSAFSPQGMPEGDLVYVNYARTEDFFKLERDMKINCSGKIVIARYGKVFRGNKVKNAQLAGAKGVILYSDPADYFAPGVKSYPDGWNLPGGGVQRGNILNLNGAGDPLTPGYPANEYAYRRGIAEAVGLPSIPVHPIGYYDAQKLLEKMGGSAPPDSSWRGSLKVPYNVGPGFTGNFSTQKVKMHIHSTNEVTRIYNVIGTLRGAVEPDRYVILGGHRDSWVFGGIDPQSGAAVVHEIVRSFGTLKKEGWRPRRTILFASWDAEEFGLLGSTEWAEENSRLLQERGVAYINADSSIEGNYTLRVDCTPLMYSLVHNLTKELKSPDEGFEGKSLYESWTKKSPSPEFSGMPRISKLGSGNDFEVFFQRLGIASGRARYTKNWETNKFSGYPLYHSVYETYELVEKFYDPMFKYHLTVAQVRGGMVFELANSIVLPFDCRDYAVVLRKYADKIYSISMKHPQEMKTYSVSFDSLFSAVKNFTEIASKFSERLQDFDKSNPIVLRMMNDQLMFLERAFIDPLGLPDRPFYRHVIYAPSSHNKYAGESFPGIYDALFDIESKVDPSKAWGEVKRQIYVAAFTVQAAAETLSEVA
assay name: Enzymatic assay for in vitro evaluation of PSMA inhibitors (fluorescent assay of PSMA activity, NAAG substrate, OPA detection of glutamate)
Format: biochemical
conditions used: compound at 10 μM
Kindly provide the numeric value in % only, without the unit symbol.

Here is how some molecules turned out for PSMA Blkg % (10 μM).
- molecule: "CC(C)(C)OC(=O)NCCCCN(CC(=O)N[C@@H](CCC(=O)O)C(=O)O)C(=O)NC(N)=O"
  unit spec: "%"
  PSMA Blkg % (10 μM): 0
- molecule: "O=C(O)CN(CC(=O)O)NC(=O)NC(CSCc1ccccc1)C(=O)O (stereo not shown)"
  unit spec: "%"
  PSMA Blkg % (10 μM): 16
- molecule: "O=C(O)CC[C@@H](NC(=O)N(O)[C@@H](CC(=O)NCc1ccccc1)C(=O)O)C(=O)O"
  unit spec: "%"
  PSMA Blkg % (10 μM): 42
- molecule: "CC(F)C(=O)Nc1ccc(C(=O)NCCCCC(C(=O)O)N(C)C(=O)N[C@@H](CCC(=O)O)C(=O)O)cc1 (stereo partly shown)"
  unit spec: "%"
  PSMA Blkg % (10 μM): 99
- molecule: "Cn1c(=O)n([C@@H](CCCCNC(=O)OCc2ccccc2)C(=O)O)c(=O)n([C@@H](CCC(=O)O)C(=O)O)c1=O"
  unit spec: "%"
  PSMA Blkg % (10 μM): 0
- molecule: "O=C(O)CC[C@H](NC(=O)N(O)[C@@H](CCCNC(=O)OCc1ccccc1)C(=O)O)C(=O)O"
  unit spec: "%"
  PSMA Blkg % (10 μM): 16

Turning now to a further molecule:
Query :: What value of measured PSMA Blkg % (10 μM) is listed for O=C(O)CC[C@@H](C(=O)O)N1C(=O)/C(=C(\O)CCCc2ccc(-n3cc(CCCF)nn3)cc2)C(=O)N(Cc2ccccc2)C1=O ?
Result :: 0

* * *

target entity: human PSMA (Homo sapiens (Human))
assay name: Enzymatic assay for in vitro evaluation of PSMA inhibitors (fluorescent assay of PSMA activity, NAAG substrate, OPA detection of glutamate)
Type: biochemical
conditions used: 1.0 μM
measured endpoint: PSMA Blkg % (1.0 μM) (%)
Kindly provide the numeric value in % only, without the unit symbol.

Here is how some compounds turned out for PSMA Blkg % (1.0 μM).
- structure string: "O=C(O)CC[C@H](NC(=O)NCCCCCNC(=O)c1cc(C(=O)NCCCCCNC(=O)N[C@@H](CCC(=O)O)C(=O)O)cc(-n2cc(CCCF)nn2)c1)C(=O)O"
  PSMA Blkg % (1.0 μM) / %: 0
- structure string: "O=C(O)CC[C@H](NC(=O)C[C@@H](NC(=O)Cn1cc(CCCF)nn1)C(=O)O)C(=O)O"
  PSMA Blkg % (1.0 μM) / %: 24
- structure string: "O=C(O)CC[C@H](NC(=O)N[C@@H](CCCCNC(=O)CC[C@H](NC(=O)Cn1cc(CCCF)nn1)C(=O)NCCCC[C@H](NC(=O)N[C@@H](CCC(=O)O)C(=O)O)C(=O)O)C(=O)O)C(=O)O"
  PSMA Blkg % (1.0 μM) / %: 98
- structure string: "O=C(O)CC[C@H](NC(=O)N[C@@H](Cc1ccc(NC(=O)c2cc(C(=O)O)cc(-n3cc(CCCF)nn3)c2)cc1)C(=O)O)C(=O)O"
  PSMA Blkg % (1.0 μM) / %: 96
- structure string: "NCCOCCOCCOCCOCc1cn(-c2cc(C(=O)NCCCC[C@H](NC(=O)N[C@@H](CCC(=O)O)C(=O)O)C(=O)O)cc(C(=O)NCCCC[C@H](NC(=O)N[C@@H](CCC(=O)O)C(=O)O)C(=O)O)c2)nn1"
  PSMA Blkg % (1.0 μM) / %: 85

Turning now to a further compound:
Query :: What value of measured PSMA Blkg % (1.0 μM) is listed for O=C(O)CC[C@H](NC(=O)N[C@@H](CCCCNC(=O)c1cc(C(=O)O)cc(-n2cc(CCCF)nn2)c1)C(=O)O)C(=O)O ?
Result :: 98
